# Study target: HLA-DR DRB1*0101 (DR1) (Homo sapiens, UniProt P01903+P01911, A100R/D57E/F55L/F60I/F76Y/I96L/L162R/M171V/P40L/Q125E/R42F/V115G/Y59C)
# Experiment description: biochemical
# Type: binding
# Cond: DRB1 *0101
Provide the recorded pIC50 for the entries that follow.
Answers are plain numbers, as −log10 of the molar value.

Smiles entry	pIC50
CC[C@H](C)[C@H](NC(=O)[C@H](CCCNC(=N)N)NC(=O)[C@@H](N)[C@@H](C)O)C(=O)N[C@@H](Cc1ccc(O)cc1)C(=O)N[C@@H](CC(N)=O)C(=O)N[C@H](C(=O)N[C@H](C(=O)NCC(=O)N[C@H](C(=O)N[C@@H](CC(C)C)C(=O)N[C@@H](CCCNC(=N)N)C(=O)NCC(=O)N[C@@H](C)C(=O)N[C@H](C(=O)N[C@@H](CCC(=O)O)C(=O)O)C(C)C)[C@@H](C)O)[C@@H](C)CC)C(C)C	7.85

Continue with the next compound.
Task item: Name the reported pIC50 value associated with the compound CC(C)C[C@H](NC(=O)CNC(=O)[C@H](CC(N)=O)NC(=O)[C@H](Cc1ccc(O)cc1)NC(=O)[C@@H](NC(=O)[C@H](CC(=O)O)NC(=O)[C@H](CC(C)C)NC(=O)[C@H](C)N)C(C)C)C(=O)N[C@@H](CC(C)C)C(=O)N1CCC[C@H]1C(=O)N1CCC[C@H]1C(=O)N[C@@H](Cc1ccc(O)cc1)C(=O)N[C@@H](C)C(=O)N[C@@H](CO)C(=O)N[C@@H](CS)C(=O)O
Reply: 7.74

###

Hi there, I'd appreciate the recorded IC50 for every entry that follows.
# Study target: HLA-DR DRB1*0405 (DR4) (Homo sapiens, UniProt P01903+P01911, A100R/A169T/D86S/F76Y/I96L/K127E/L162R/M171V/N62H/P40V/Q125Y/R42H/S133A/S149N/S66Y/V115G/V209L/W38E)
# Experiment description: biochemical
# Format: binding
# Cond: DRB1 *0405
Units required after the number.

# annotated cases, reported IC50 shown
Smiles entry	Result
CC[C@H](C)[C@H](NC(=O)[C@H](CO)NC(=O)[C@H](CC(=O)O)NC(=O)[C@H](CCCNC(=N)N)NC(=O)[C@H](Cc1ccc(O)cc1)NC(=O)[C@@H](NC(=O)[C@@H](NC(=O)[C@H](Cc1ccccc1)NC(=O)[C@@H](N)CC(C)C)C(C)C)C(C)C)C(=O)N1CCC[C@H]1C(=O)N[C@@H](Cc1c[nH]cn1)C(=O)N[C@@H](C)C(=O)N[C@@H](C)C(=O)N[C@@H](CS)C(=O)N[C@@H](Cc1c[nH]cn1)C(=O)O	690 nM
CSCC[C@H](NC(=O)[C@H](Cc1ccc(O)cc1)NC(=O)[C@H](CCC(=O)O)NC(=O)[C@@H](N)Cc1c[nH]cn1)C(=O)N[C@@H](CC(C)C)C(=O)N[C@@H](CC(=O)O)C(=O)N[C@@H](CC(C)C)C(=O)N[C@@H](CCC(N)=O)C(=O)N1CCC[C@H]1C(=O)N[C@@H](CCC(=O)O)C(=O)N[C@H](C(=O)N[C@H](C(=O)N[C@@H](CC(=O)O)C(=O)N[C@@H](CC(C)C)C(=O)N[C@@H](Cc1ccc(O)cc1)C(=O)O)[C@@H](C)O)[C@@H](C)O	2290 nM

Below are some compounds; for each one, tell me its IC50.
1. CC(C)C[C@H](NC(=O)[C@H](C)NC(=O)[C@H](Cc1ccccc1)NC(=O)[C@@H](N)[C@@H](C)O)C(=O)N[C@@H](Cc1c[nH]c2ccccc12)C(=O)N[C@@H](CCCNC(=N)N)C(=O)N[C@H](C(=O)N[C@@H](CO)C(=O)N[C@@H](C)C(=O)N[C@@H](CCC(=O)O)C(=O)N[C@@H](CCC(=O)O)C(=O)N[C@@H](Cc1ccc(O)cc1)C(=O)O)C(C)C
2. CSCC[C@H](NC(=O)[C@H](CCC(N)=O)NC(=O)[C@@H](NC(=O)[C@H](Cc1ccccc1)NC(=O)[C@H](C)NC(=O)[C@@H](NC(=O)CN)[C@@H](C)O)C(C)C)C(=O)N1CCC[C@H]1C(=O)N[C@@H](C)C(=O)N[C@@H](Cc1c[nH]cn1)C(=O)NCC(=O)N[C@@H](CC(C)C)C(=O)N[C@@H](Cc1ccccc1)C(=O)N1CCC[C@H]1C(=O)N[C@@H](Cc1c[nH]c2ccccc12)C(=O)O
3. CC(C)C[C@H](NC(=O)[C@H](CCC(N)=O)NC(=O)[C@H](CCC(N)=O)NC(=O)[C@H](CC(C)C)NC(=O)[C@@H](NC(=O)[C@H](CCCNC(=N)N)NC(=O)[C@@H](N)CC(C)C)[C@@H](C)O)C(=O)N[C@@H](Cc1ccccc1)C(=O)N[C@@H](CC(C)C)C(=O)N[C@@H](CO)C(=O)N[C@H](C(=O)N[C@@H](CC(C)C)C(=O)N[C@@H](CO)C(=O)N[C@@H](Cc1ccccc1)C(=O)N[C@H](C(=O)O)C(C)C)[C@@H](C)O
4. CC[C@H](C)[C@H](N)C(=O)N[C@@H](CCCNC(=N)N)C(=O)N[C@H](C(=O)N[C@@H](CC(C)C)C(=O)N[C@@H](CCC(=O)O)C(=O)N[C@@H](CC(=O)O)C(=O)N[C@@H](CC(C)C)C(=O)N[C@@H](CC(C)C)C(=O)N[C@@H](CCSC)C(=O)NCC(=O)N[C@H](C(=O)N[C@@H](CC(C)C)C(=O)NCC(=O)N[C@H](C(=O)N[C@H](C(=O)O)C(C)C)[C@@H](C)CC)[C@@H](C)O)[C@@H](C)O
5. CC[C@H](C)[C@H](NC(=O)CNC(=O)[C@H](CC(C)C)NC(=O)CNC(=O)[C@H](CCCCN)NC(=O)[C@@H](NC(=O)[C@@H](NC(=O)[C@H](Cc1ccccc1)NC(=O)[C@H](CS)NC(=O)[C@@H](NC(=O)[C@@H](N)CCC(N)=O)C(C)C)[C@@H](C)CC)[C@@H](C)O)C(=O)N[C@@H](CO)C(=O)N[C@@H](Cc1ccc(O)cc1)C(=O)NCC(=O)N[C@@H](CCCNC(=N)N)C(=O)O

Reply:
1. 72 nM
2. 18 nM
3. 9 nM
4. 61 nM
5. 295 nM

Kindly give each listed record's IC50.
1. CC[C@H](C)[C@H](NC(=O)[C@@H](N)Cc1c[nH]c2ccccc12)C(=O)N[C@H](C(=O)N[C@@H](CCC(N)=O)C(=O)N[C@@H](CS)C(=O)N[C@@H](Cc1ccccc1)C(=O)N[C@@H](CC(C)C)C(=O)N1CCC[C@H]1C(=O)N[C@H](C(=O)N[C@@H](Cc1ccccc1)C(=O)N[C@@H](CC(C)C)C(=O)N[C@@H](C)C(=O)N[C@@H](CCC(N)=O)C(=O)N1CCC[C@H]1C(=O)N1CCC[C@H]1C(=O)N[C@@H](CO)C(=O)NCC(=O)N[C@@H](CCC(N)=O)C(=O)N[C@@H](CCCNC(=N)N)C(=O)N[C@@H](CCCNC(=N)N)C(=O)O)C(C)C)[C@@H](C)O
2. CC[C@H](C)[C@H](NC(=O)[C@H](CCC(=O)O)NC(=O)[C@@H](NC(=O)[C@H](Cc1ccc(O)cc1)NC(=O)[C@H](CCC(=O)O)NC(=O)[C@@H](N)CCC(=O)O)C(C)C)C(=O)N[C@@H](CCCNC(=N)N)C(=O)N[C@@H](CCC(N)=O)C(=O)N[C@H](C(=O)NCC(=O)N[C@@H](CC(=O)O)C(=O)N[C@@H](Cc1ccccc1)C(=O)N[C@@H](Cc1c[nH]cn1)C(=O)O)C(C)C

Reply:
216 nM
26 nM

Task item: Find the recorded IC50 belonging to CC[C@H](C)[C@H](NC(=O)[C@H](CCC(=O)O)NC(=O)[C@H](CC(C)C)NC(=O)[C@H](C)NC(=O)[C@H](CO)NC(=O)[C@H](CO)NC(=O)[C@H](CC(C)C)NC(=O)[C@H](CCC(=O)O)NC(=O)[C@H](Cc1c[nH]cn1)NC(=O)[C@H](CC(C)C)NC(=O)[C@H](CCCCN)NC(=O)[C@H](CCCNC(=N)N)NC(=O)[C@@H]1CCCN1)C(=O)N1CCC[C@H]1C(=O)N[C@@H](Cc1ccc(O)cc1)C(=O)O and report it.
Reply: 80 nM
